Ref: patent US20240182547A1

- assay-system: DS-Cav1 (RSV F-protein, pre-form, in-house) (respiratory syncytial virus (RSV), UniProt P03420 26-513)
- Sequence (P03420 26-524): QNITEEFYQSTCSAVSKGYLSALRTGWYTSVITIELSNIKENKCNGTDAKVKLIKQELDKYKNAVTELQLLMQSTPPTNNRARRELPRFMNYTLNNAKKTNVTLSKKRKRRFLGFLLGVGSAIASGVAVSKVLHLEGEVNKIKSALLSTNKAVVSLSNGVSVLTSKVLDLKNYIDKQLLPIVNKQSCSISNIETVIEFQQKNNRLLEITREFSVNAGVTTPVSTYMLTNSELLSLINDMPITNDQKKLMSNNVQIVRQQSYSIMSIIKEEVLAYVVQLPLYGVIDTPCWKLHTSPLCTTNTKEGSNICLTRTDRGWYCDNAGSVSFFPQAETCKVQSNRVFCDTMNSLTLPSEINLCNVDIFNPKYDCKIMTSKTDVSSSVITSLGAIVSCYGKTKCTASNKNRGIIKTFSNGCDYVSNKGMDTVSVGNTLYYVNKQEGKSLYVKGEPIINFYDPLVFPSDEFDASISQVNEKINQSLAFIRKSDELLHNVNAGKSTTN
- protocol-description: ELISA, coated DS-Cav1, IgG titrated
parameter: Kd

binder	observed-measurement
12C11 (antibody, V domains shown, IgG made in Expi293; also called #19; 19) VH: EVQLVESGGGLVKPGGSLRLSCAASGFTFTSYRMHWVRQAPGKRLEWVSSITGGGNYIEYADSVKGRFTISRDNAKNSLDLQMNSLRAEDTAIYYCARDMYGLGSYYSPNYFDPWGQGTLVTVSS VL: QSVLTQPPSVSGAPGQRVTISCTGSSSNIGAGYDVHWYQQVPGTAPKLLIFGSTNRPSGVPDRFSGSKSGASASLAITGLQTEDEADYYCQSYDRSLSHVFGTGTKVTVLG	~0.72 nM
#52m (antibody, V domains shown, Germline-edited (m) form of 9H4, heavy chain edited; IgG; also called 9H4 (modified)) VH: QVQLVESGGGLVQPGGSLRISCTASGFTFRNYEMNWVRQAPGKGLEWVAYISSSGSSRYYADSVKGRFTISRDNAKNSLFLQMNSLRAEDMAVYYCARTDDGSSWFVSTSSFYGMDVWGQGTTVTVSS VL: EIVLTQSPGIQSLSPGETATLSCRASESISSSYFAWYQQKPGQAPRLLIYGASSRASGIPDRFSGSGSGTDFTLTISRLEPEDFAVYYCQQYGSSPPITFGQGTRLEIKR	~0.89 nM

Could you now look at the following binder, please?
For this binder ( 2G4 (antibody, V domains shown, IgG made in Expi293; also called #1) VH: EVQLVESGGGLVKPGGSLRLSCAASGFTFSSYTMHWVRQAPGKGLEWVSSITGGSSYVDYSASVKGRFTISRDNAQSSLYLQMNSLRAEDTAVYYCARDDYGSGSYSNWFDPWGQGTLVTVSS VL: QSVLTQPPSVSGAPGQRVTISCTGSSSNIGAGYDVHWYQQVPGTAPKLLIFGSTNRPSGVPDRFSGSKSGTSASLAITGLQADDEADYYCQSYDRSLSHVFGTGTKVTVLG ), measured Kd is ~1.01 nM
